Tested on: Sindbis virus TE/5'2J-GFP;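 further: Interferon-defective BHK-21 derivatives, ZAP line overexpressing the rat ZAP N-terminal zinc finger domain fused to Zeocin resistance, GFP scored within live singlet TagRFP+ cells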
Experiment: percent infected (GFP+ in RFP+ ISG-expressing cells); higher = more infection (less antiviral activity)
Settings: experiment: confirmatory screen 3; BHK/NZAP-Zeo (ZAP)
Below is a list of entries, each paired with its recorded percent infected value.
Assay metric: percent infected (%)

>>> value_observed("MHLCGGNGLLTQTDPKEQQRQLKKQKNRAAAQRSRQKHTDKADALHQQHESLEKDNLALRKEIQSLQAELAWWSRTLHVHERLCPMDCASCSAPGLLGCWDQAEGLLGPGPQGQHGCREQLELFQTPGSCYPAQPLSPGPQPHDSPSLLQCPLPSLSLGPAVVAEPPVQLSPSPLLFASHTGSSLQGSSSKLSALQPSLTAQTAPPQPLELEHPTRGKLGSSPDNPSSALGLARLQSREHKPALSAATWQGLVVDPSPHPLLAFPLLSSAQVHF [BATF2]")
91
>>> value_observed("MASVIPASNRSMRSDRNTYVGKRFVHVKNPYLDLMDEDILYHLDLGTKTHNLPAMFGDVKFVCVGGSPNRMKAFALFMHKELGFEEAEEDIKDICAGTDRYCMYKTGPVLAISHGMGIPSISIMLHELIKLLHHARCCDVTIIRIGTSGGIGIAPGTVVITDIAVDSFFKPRFEQVILDNIVTRSTELDKELSEELFNCSKEIPNFPTLVGHTMCTYDFYEGQGRLDGALCSFSREKKLDYLKRAFKAGVRNIEMESTVFAAMCGLCGLKAAVVCVTLLDRLDCDQINLPHDVLVEYQQRPQLLISNFIRRRLGLCD [UPP2]")
88.3
>>> value_observed("MQEGELAISPISPVAAMPPLGTHVQARCEAQINLLGEGGICKLPGRLRIQPALWSREDVLHWLRWAEQEYSLPCTAEHGFEMNGRALCILTKDDFRHRAPSSGDVLYELLQYIKTQRRALVCGPFFGGIFRLKTPTQHSPVPPEEVTGPSQMDTRRGHLLQPPDPGLTSNFGHLDDPGLARWTPGKEESLNLCHCAELGCRTQGVCSFPAMPQAPIDGRIADCRLLWDYVYQLLLDTRYEPYIKWEDKDAKIFRVVDPNGLARLWGNHKNRVNMTYEKMSRALRHYYKLNIIKKEPGQKLLFRFLKTPGKMVQDKHSHLEPLESQEQDRIEFKDKRPEISP [ETV7]")
93.6
>>> value_observed("MPSLWDRFSSSSTSSSPSSLPRTPTPDRPPRSAWGSATREEGFDRSTSLESSDCESLDSSNSGFGPEEDTAYLDGVSLPDFELLSDPEDEHLCANLMQLLQESLAQARLGSRRPARLLMPSQLVSQVGKELLRLAYSEPCGLRGALLDVCVEQGKSCHSVGQLALDPSLVPTFQLTLVLRLDSRLWPKIQGLFSSANSPFLPGFSQSLTLSTGFRVIKKKLYSSEQLLIEEC [DDIT4]")
93

Reference source for all entries: the supplement of paper PMC3353916
